Assay: acute toxicity on rats
Settings: rat, in vivo, po, p.o. on rats ♀
MEASURED METRIC: LD50 (mg/kg)
Enter your answer as a number in mg/kg; do not include the unit.

# LD50 of CCOc1ccc(CC2=NCCc3cc(OCC)c(OCC)cc32)cc1O = 625

---

Assay: acute toxicity on rats
Details: rat, in vivo, iv, i.v. on rats ♀
MEASURED METRIC: LD50 (mg/kg)
Enter your answer as a number in mg/kg; do not include the unit.

# LD50 of CCOc1ccc(CC2=NCCc3cc(OCC)c(OCC)cc32)cc1O [Formula I] = 24.9
